Readings of pKd for the listed compounds
- Tested on: NuRD complex
- test: Chemoproteomic binding profiling, K562 cell extract, SAHA/ITF2357 probe matrix (Kd app)
- Parameters: species or system human
- test_conditions: protein MBD2; NuRD complex; read-out: Kd^app MBD2
pKd: −log10 of the molar value.
measurement_label: pKd

{"compound": "CCCC(CCC)C(=O)O [valproate, valproic acid]", "measurement_label": "pKd", "inequality_operator": "=", "quantitative_readout": 2.89}
{"compound": "CN(C)Cc1c(C(=O)NCCOc2ccc(C(=O)NO)cc2)oc2ccccc12 [PCI-24781]", "measurement_label": "pKd", "inequality_operator": "=", "quantitative_readout": 6.77}
{"compound": "Nc1ccccc1NC(=O)CCCCCCC(=O)Nc1ccccc1 [BML-210]", "measurement_label": "pKd", "inequality_operator": "=", "quantitative_readout": 4.08}
{"compound": "COc1ccc(Cn2ccc3ccc(C(=O)NO)cc32)cc1 [PCI-34051]", "measurement_label": "pKd", "inequality_operator": "<", "quantitative_readout": 4.22}
{"compound": "Cn1cc(C(=O)Cc2ccccc2)cc1C=CC(=O)NO [MC-1293]", "measurement_label": "pKd", "inequality_operator": "<", "quantitative_readout": 5.00}

###

- measured_target: ISOC1 (Homo sapiens, UniProt Q96CN7)
- Construct: endogenous in cells
- Sequence (Q96CN7 whole entry): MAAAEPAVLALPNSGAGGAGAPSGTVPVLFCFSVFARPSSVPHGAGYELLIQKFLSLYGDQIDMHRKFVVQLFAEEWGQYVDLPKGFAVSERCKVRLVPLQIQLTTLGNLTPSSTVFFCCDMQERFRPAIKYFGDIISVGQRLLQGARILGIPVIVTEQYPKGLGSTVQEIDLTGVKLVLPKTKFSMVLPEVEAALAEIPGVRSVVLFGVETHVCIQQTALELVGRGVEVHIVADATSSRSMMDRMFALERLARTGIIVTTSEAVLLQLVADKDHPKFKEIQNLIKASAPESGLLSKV
- test: Competition binding assay in cell lysate, affinity matrix, MS
- test_conditions: IC50, ISOC1; mix of Jurkat and Ramos cell lysates
pIC50: −log10 of the molar value.

{"compound": "O=C(CCCCCCC(=O)Nc1ccccc1)NO [SAHA, suberoylanilide hydroxamic acid]", "pIC50": 5.66}

###

- measured_target: Sin3 complex (Homo sapiens, UniProt Q13547+Q92769)
- Sequence (Q13547 whole entry): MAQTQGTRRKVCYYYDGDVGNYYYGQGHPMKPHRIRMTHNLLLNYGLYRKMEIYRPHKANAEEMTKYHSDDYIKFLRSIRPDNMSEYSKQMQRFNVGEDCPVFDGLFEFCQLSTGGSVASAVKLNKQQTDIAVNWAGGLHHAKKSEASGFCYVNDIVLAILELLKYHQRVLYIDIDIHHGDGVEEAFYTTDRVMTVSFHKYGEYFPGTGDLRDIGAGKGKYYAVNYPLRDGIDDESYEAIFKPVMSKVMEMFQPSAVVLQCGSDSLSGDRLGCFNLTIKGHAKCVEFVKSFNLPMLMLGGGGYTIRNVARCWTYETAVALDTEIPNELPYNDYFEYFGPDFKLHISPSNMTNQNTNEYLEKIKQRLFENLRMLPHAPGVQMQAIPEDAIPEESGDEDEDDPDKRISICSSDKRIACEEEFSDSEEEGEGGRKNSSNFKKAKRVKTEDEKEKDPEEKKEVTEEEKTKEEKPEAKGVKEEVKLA
- Sequence (Q92769 whole entry): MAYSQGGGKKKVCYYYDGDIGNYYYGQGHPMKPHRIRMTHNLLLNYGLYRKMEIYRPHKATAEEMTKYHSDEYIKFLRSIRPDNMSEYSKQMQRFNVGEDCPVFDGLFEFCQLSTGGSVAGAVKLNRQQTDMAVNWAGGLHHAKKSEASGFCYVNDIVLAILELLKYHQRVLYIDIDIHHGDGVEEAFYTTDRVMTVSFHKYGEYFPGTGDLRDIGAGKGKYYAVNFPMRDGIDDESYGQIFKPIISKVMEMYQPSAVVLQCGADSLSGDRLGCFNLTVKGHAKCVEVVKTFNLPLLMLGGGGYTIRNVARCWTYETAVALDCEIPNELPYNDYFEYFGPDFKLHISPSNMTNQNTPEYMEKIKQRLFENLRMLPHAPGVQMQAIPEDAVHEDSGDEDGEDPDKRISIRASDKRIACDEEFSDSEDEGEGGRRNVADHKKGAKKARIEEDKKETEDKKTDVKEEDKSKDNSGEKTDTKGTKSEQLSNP
- Sequence (Q96ST3 whole entry partner): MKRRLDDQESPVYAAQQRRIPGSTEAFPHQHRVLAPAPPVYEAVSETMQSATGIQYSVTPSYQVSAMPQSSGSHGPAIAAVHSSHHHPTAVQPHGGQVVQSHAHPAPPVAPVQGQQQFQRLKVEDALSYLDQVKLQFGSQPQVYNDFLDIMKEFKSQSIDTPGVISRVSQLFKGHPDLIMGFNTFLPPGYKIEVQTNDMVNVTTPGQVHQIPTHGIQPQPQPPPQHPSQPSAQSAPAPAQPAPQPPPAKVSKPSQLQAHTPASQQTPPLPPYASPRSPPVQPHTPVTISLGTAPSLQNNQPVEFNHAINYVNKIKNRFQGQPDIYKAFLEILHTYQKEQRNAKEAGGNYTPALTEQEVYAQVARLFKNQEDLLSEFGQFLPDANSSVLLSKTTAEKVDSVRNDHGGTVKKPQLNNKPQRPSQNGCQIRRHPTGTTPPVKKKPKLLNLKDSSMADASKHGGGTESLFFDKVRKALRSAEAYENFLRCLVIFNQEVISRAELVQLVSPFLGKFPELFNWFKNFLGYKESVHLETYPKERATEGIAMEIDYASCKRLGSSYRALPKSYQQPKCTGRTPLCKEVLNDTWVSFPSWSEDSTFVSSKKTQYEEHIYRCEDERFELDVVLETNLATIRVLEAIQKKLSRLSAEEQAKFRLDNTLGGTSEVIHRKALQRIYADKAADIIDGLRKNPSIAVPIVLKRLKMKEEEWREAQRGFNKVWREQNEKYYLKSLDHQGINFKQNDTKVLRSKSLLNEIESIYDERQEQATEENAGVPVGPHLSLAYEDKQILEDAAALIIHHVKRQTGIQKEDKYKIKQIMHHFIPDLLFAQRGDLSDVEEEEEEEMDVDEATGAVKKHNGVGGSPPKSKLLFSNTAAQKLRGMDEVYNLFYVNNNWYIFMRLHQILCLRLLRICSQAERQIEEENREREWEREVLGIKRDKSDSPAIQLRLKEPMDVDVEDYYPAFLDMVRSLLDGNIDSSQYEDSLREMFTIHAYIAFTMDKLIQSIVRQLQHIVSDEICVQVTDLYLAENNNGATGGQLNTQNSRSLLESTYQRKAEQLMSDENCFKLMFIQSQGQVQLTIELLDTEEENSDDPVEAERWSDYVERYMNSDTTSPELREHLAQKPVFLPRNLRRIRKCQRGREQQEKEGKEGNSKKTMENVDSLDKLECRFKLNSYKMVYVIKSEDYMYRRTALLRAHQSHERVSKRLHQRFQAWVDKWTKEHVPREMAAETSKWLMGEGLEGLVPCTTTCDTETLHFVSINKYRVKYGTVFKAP
- test: Chemoproteomic binding profiling, K562 cell extract, SAHA/ITF2357 probe matrix (Kd app)
- test_conditions: protein SIN3A, read-out: Kd^app SIN3A
pKd: −log10 of the molar value.
measurement_label: pKd

{"molecular_string": "CCCCOc1ccc(CC(=O)NO)cc1", "measured_target": "Sin3 complex (Homo sapiens, UniProt Q13547+Q92769)", "measurement_label": "pKd", "quantitative_readout": 3.73}

###

Readings of pKd for the listed molecules
- measured_target: HDAC10 (Homo sapiens, UniProt Q969S8)
- Construct: used to probe endogenous HDACs in K562 whole cell extracts; endogenous in cells
- Sequence (Q969S8 1-669): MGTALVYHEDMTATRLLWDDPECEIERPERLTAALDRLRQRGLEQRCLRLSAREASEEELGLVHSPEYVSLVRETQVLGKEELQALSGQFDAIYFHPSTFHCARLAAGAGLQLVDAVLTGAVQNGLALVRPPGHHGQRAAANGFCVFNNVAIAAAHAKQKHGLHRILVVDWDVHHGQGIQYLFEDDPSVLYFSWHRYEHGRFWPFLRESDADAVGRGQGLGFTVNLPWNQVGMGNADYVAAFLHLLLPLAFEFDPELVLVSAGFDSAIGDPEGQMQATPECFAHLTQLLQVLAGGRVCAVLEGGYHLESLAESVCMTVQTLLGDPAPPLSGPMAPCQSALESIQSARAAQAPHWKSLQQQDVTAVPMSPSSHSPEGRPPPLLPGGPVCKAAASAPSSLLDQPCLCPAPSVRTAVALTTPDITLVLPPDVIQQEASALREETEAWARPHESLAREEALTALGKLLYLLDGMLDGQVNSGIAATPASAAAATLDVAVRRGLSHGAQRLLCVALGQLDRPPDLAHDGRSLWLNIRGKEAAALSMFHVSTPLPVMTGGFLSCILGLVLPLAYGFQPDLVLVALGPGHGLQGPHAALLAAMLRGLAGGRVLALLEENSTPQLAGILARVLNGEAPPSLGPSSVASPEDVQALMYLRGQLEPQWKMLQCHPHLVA
- test: Chemoproteomic binding profiling, K562 cell extract, SAHA/ITF2357 probe matrix (Kd app)
- test_conditions: protein HDAC10; class II HDAC; read-out: Kd^app HDAC10
pKd: −log10 of the molar value.
measurement_label: pKd

{"molecule": "CCCC(CCC)C(=O)O [valproate, valproic acid]", "result": "< 5.00"}
{"molecule": "Nc1ccccc1NC(=O)c1ccc(CNc2nccc(-c3cccnc3)n2)cc1", "result": "< 3.57"}
{"molecule": "CCCCOc1ccc(CC(=O)NO)cc1", "result": 5.00}
{"molecule": "Nc1ccccc1NC(=O)CCCCCCC(=O)Nc1ccccc1", "result": "< 4.07"}

###

- measured_target: ALDH2 (Homo sapiens, UniProt P05091)
- Construct: endogenous in cells
- Sequence (P05091 18-517): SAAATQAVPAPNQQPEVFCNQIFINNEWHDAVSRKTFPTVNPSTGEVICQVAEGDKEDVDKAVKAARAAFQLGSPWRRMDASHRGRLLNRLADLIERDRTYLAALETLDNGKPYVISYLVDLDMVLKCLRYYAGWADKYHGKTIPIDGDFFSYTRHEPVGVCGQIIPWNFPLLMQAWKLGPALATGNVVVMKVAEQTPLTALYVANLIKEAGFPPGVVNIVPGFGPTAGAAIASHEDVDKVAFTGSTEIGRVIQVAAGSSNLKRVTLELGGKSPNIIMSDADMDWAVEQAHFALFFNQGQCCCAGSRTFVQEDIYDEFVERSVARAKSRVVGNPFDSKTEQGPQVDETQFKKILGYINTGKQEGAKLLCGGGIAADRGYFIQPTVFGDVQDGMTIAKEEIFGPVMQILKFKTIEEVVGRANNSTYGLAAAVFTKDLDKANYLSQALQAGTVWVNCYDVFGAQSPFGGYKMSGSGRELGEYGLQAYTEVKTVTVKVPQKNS
- test: Competition binding assay in cell lysate, affinity matrix, MS
- test_conditions: ALDH2; K-562 cell lysate; read-out: IC50
pIC50: −log10 of the molar value.
measurement_label: pIC50

{"compound": "CC(/C=C/C(=O)NO)=C\\[C@@H](C)C(=O)c1ccc(N(C)C)cc1 [Trichostatin A]", "measured_target": "ALDH2 (Homo sapiens, UniProt P05091)", "measurement_label": "pIC50", "quantitative_readout": 5.52}

###

- System: RBBP7
- test: Competition binding assay in cell lysate, affinity matrix, MS (Sin3/Mi2-NuRD interactor)
- test_conditions: Molt-4 cell lysate

{"molecular_string": "CC(/C=C/C(=O)NO)=C\\[C@@H](C)C(=O)c1ccc(N(C)C)cc1", "IC50 [nM]": 120}

###

- measured_target: HDAC3-NCoR complex (Homo sapiens)
- Sequence (O15379 whole entry, one chain of several): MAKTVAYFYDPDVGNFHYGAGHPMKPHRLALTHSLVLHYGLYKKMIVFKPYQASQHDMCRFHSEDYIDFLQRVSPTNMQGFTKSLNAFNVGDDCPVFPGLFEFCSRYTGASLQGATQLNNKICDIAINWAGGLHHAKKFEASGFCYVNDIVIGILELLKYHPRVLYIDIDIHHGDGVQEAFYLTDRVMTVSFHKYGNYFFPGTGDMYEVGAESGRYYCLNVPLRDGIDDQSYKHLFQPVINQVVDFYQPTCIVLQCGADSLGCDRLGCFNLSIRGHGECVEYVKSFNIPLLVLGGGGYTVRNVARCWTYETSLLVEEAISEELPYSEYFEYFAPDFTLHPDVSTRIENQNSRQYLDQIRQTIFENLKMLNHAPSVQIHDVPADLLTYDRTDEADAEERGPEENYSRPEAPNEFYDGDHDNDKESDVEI
- test: Chemoproteomic binding profiling, K562 cell extract, SAHA/ITF2357 probe matrix (Kd app)
- test_conditions: protein GPS2, read-out: Kd^app GPS2
pKd: −log10 of the molar value.

{"compound": "CCCCOc1ccc(CC(=O)NO)cc1 [bufexamac]", "pKd": 3.22}
{"compound": "Nc1ccccc1NC(=O)CCCCCCC(=O)Nc1ccccc1 [BML-210]", "pKd": 5.40}

###

- measured_target: BZW2 (Homo sapiens, UniProt Q9Y6E2)
- Construct: endogenous in cells
- Sequence (Q9Y6E2 whole entry): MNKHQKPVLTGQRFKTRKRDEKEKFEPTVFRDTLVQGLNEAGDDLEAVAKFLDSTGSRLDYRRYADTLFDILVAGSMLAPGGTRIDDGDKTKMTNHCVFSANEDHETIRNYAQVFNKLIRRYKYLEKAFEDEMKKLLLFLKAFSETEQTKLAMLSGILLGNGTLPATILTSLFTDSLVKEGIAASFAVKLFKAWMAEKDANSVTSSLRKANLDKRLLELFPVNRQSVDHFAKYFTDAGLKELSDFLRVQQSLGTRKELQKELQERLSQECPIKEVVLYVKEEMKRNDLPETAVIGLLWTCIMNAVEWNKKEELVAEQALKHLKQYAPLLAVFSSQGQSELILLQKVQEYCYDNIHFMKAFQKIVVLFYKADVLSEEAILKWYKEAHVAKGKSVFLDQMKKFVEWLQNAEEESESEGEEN
- test: Competition binding assay in cell lysate, affinity matrix, MS
- test_conditions: read-out: IC50

{"molecular_string": "Nc1ccccc1NC(=O)c1ccc(CNC(=O)OCc2cccnc2)cc1", "IC50": "≥ 300 µM"}

###

- measured_target: PTER (Homo sapiens, UniProt Q96BW5)
- Construct: endogenous in cells
- Sequence (Q96BW5 whole entry): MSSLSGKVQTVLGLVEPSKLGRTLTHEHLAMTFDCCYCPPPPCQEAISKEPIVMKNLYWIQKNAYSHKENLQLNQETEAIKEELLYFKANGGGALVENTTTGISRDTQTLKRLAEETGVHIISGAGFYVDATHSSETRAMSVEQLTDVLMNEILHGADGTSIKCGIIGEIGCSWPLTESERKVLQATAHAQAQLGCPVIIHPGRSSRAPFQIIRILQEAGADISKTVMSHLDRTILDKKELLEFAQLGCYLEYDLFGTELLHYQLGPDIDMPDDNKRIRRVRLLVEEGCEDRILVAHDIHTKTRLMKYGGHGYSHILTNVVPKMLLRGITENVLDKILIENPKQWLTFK
- test: Competition binding assay in cell lysate, affinity matrix, MS
pIC50: −log10 of the molar value.

{"compound": "O=C(CCCCCCC(=O)Nc1ccccc1)NO [SAHA, suberoylanilide hydroxamic acid]", "measured_target": "PTER (Homo sapiens, UniProt Q96BW5)", "pIC50": "≤ 5.00"}
{"compound": "Nc1ccccc1NC(=O)c1ccc(CNC(=O)OCc2cccnc2)cc1", "measured_target": "PTER (Homo sapiens, UniProt Q96BW5)", "pIC50": "≤ 3.52"}

###

- measured_target: ISOC2 (Homo sapiens, UniProt Q96AB3)
- Construct: endogenous in cells
- Sequence (Q96AB3 whole entry): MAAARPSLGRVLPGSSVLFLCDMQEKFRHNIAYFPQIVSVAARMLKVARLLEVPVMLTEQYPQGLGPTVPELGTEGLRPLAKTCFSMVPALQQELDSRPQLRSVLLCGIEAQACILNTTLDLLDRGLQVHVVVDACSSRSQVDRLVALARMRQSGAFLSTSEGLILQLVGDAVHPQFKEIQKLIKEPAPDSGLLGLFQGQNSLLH
- test: Competition binding assay in cell lysate, affinity matrix, MS
- test_conditions: ISOC2; K-562 cell lysate

{"molecular_string": "CC(/C=C/C(=O)NO)=C\\[C@@H](C)C(=O)c1ccc(N(C)C)cc1", "IC50 [nM]": 3000}

###

- System: MTA2
- test: Competition binding assay in cell lysate, affinity matrix, MS (Mi-2/NuRD interactor)
- test_conditions: K-562 cell lysate
pIC50: −log10 of the molar value.
Readings of pIC50 for the listed molecules
measurement_label: pIC50

{"molecule": "CC(/C=C/C(=O)NO)=C\\[C@@H](C)C(=O)c1ccc(N(C)C)cc1", "measurement_label": "pIC50", "quantitative_readout": 7.15}
{"molecule": "O=C(CCCCCCC(=O)Nc1ccccc1)NO [SAHA, suberoylanilide hydroxamic acid]", "measurement_label": "pIC50", "quantitative_readout": 5.00}
{"molecule": "Nc1ccccc1NC(=O)c1ccc(CNC(=O)OCc2cccnc2)cc1", "measurement_label": "pIC50", "quantitative_readout": 3.52}
